Numbers sourced from patent US7011816B2.

Assay: in vivo
Set-up: species or system nude mice
Details: nude, mouse, total radioactivity, Tumor-to-tissue ratio Lungs
*1 amine or outer side, *2 acyl side, *3 side chain or, on linkers, in order; H or OH if unused. Where a SMILES comes first, the peptide text is derived from it. Side-chain parts run from the residue outwards. [ ]: non-standard residue; d: D form. The star is where a group is joined. DOTA = O=C(O)CN1CCN(CC(=O)O)CCN(CC(=O)*)CCN(CC(=O)O)CC1; NH(2-(imidazol-4-yl)ethyl) = c1ncc(CCN*)[nH]1; Suc = O=C(CCC(=O)[*:2])[*:1]
endpoint: tissue to tissue ratio at 1 h

// tissue to tissue ratio at 1 h lookup, key: NC(=O)[C@H](CCCCNC(=O)CNC(=O)CCC(=O)NCCc1cnc[nH]1)NC(=O)[C@@H](Cc1ccc(O)cc1)NC(=O)[C@H](CCCCNC(=O)CNC(=O)CCC(=O)NCCc1cnc[nH]1)NC(=O)[C@H](Cc1ccccc1)NC(=O)CN1CCN(CC(=O)O)CCN(CC(=O)O)CCN(CC(=O)O)CC1 [Ga-67-IMP 241, metal not drawn] ({DOTA}-FK([Gly-Suc-NH(2-(imidazol-4-yl)ethyl)])[dY]K([Gly-Suc-NH(2-(imidazol-4-yl)ethyl)])-NH2)
4.5

* * *

Experiment: in vivo
Set-up: species or system nude mice
Conditions: nude, mouse, total radioactivity, Tumor-to-tissue ratio Liver
*1 amine or outer side, *2 acyl side, *3 side chain or, on linkers, in order; H or OH if unused. Where a SMILES comes first, the peptide text is derived from it. Side-chain parts run from the residue outwards. [ ]: non-standard residue; d: D form. The star is where a group is joined. DOTA = O=C(O)CN1CCN(CC(=O)O)CCN(CC(=O)*)CCN(CC(=O)O)CC1; NH(2-(imidazol-4-yl)ethyl) = c1ncc(CCN*)[nH]1; Suc = O=C(CCC(=O)[*:2])[*:1]
endpoint: tissue to tissue ratio at 1 h
Answers are plain numbers.

// tissue to tissue ratio at 1 h lookup, key: NC(=O)[C@H](CCCCNC(=O)CNC(=O)CCC(=O)NCCc1cnc[nH]1)NC(=O)[C@@H](Cc1ccc(O)cc1)NC(=O)[C@H](CCCCNC(=O)CNC(=O)CCC(=O)NCCc1cnc[nH]1)NC(=O)[C@H](Cc1ccccc1)NC(=O)CN1CCN(CC(=O)O)CCN(CC(=O)O)CCN(CC(=O)O)CC1 [Ga-67-IMP 241, metal not drawn] ({DOTA}-FK([Gly-Suc-NH(2-(imidazol-4-yl)ethyl)])[dY]K([Gly-Suc-NH(2-(imidazol-4-yl)ethyl)])-NH2)
8

* * *

Assay: in vivo
Parameters: species or system nude mice
Details: nude, mouse, total radioactivity, Tumor-to-tissue ratio Sm. Intestine
*1 amine or outer side, *2 acyl side, *3 side chain or, on linkers, in order; H or OH if unused. Where a SMILES comes first, the peptide text is derived from it. Side-chain parts run from the residue outwards. [ ]: non-standard residue; d: D form. The star is where a group is joined. DOTA = O=C(O)CN1CCN(CC(=O)O)CCN(CC(=O)*)CCN(CC(=O)O)CC1; NH(2-(imidazol-4-yl)ethyl) = c1ncc(CCN*)[nH]1; Suc = O=C(CCC(=O)[*:2])[*:1]
endpoint: tissue to tissue ratio at 3 h

// tissue to tissue ratio at 3 h lookup, key: NC(=O)[C@H](CCCCNC(=O)CNC(=O)CCC(=O)NCCc1cnc[nH]1)NC(=O)[C@@H](Cc1ccc(O)cc1)NC(=O)[C@H](CCCCNC(=O)CNC(=O)CCC(=O)NCCc1cnc[nH]1)NC(=O)[C@H](Cc1ccccc1)NC(=O)CN1CCN(CC(=O)O)CCN(CC(=O)O)CCN(CC(=O)O)CC1 [Ga-67-IMP 241, metal not drawn] ({DOTA}-FK([Gly-Suc-NH(2-(imidazol-4-yl)ethyl)])[dY]K([Gly-Suc-NH(2-(imidazol-4-yl)ethyl)])-NH2)
35.5
